Test system: sialidase of influenza A virus A/Duck/313/78 (H5N3)
Assay type: biochemical
Settings: pH 6; read-out: Viral sialidase inhibition (IC50) H5N3
pIC50: −log10 of the molar value.
Endpoint label: pIC50

// query Determine from records and report pIC50 for CCCCC(=O)NC[C@@H](O)[C@@H](O)[C@H]1OC(C(=O)O)=C[C@@H](O)[C@@H]1NC(C)=O
// result < 3.00

// query Determine from records and report pIC50 for CC(=O)N[C@@H]1[C@@H]([C@H](O)[C@H](O)CNC(=O)C(C)(C)C)OC(C(=O)O)=C[C@H]1O
// result < 3.00

// query Determine from records and report pIC50 for CC(=O)N[C@@H]1[C@@H]([C@H](O)[C@H](O)CNC(=O)C2CC2)OC(C(=O)O)=C[C@H]1O
// result 4.01

// query Determine from records and report pIC50 for CCC(CC)C(=O)NC[C@@H](O)[C@@H](O)[C@@H]1OC(C(=O)O)=C[C@H](O)[C@H]1NC(C)=O
// result < 3.00

###

Exercise: state measured IC50 for each of the molecules provided.
Biological target: sialidase of influenza A virus A/Memphis/1/71 (H3N2) (Influenza A virus)
Construct: preincubated with 5 μL of the virus containing 2 enzyme units; host or cells: whole virus preparation
Sequence (P03475 whole entry): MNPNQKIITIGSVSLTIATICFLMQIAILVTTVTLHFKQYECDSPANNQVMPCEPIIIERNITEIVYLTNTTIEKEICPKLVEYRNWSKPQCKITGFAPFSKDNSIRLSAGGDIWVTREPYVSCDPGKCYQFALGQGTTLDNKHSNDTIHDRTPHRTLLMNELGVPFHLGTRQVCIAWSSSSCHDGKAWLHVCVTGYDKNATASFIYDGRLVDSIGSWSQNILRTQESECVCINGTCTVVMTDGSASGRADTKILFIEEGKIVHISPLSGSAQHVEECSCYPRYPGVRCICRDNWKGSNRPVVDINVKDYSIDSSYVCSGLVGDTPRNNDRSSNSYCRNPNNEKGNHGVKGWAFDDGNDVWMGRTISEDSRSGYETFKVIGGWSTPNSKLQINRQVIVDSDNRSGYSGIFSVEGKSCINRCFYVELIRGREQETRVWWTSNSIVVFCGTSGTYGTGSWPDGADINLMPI
Assay: biochemical

// query Determine from records and report IC50 for CC(=O)N[C@H]1[C@H]([C@H](O)[C@H](O)CO)OC(C(=O)O)=C[C@@H]1O [DANA, reference compound]
// result 9 µM

// query Determine from records and report IC50 for CCCC(=O)NC[C@@H](O)[C@@H](O)[C@H]1OC(C(=O)O)=C[C@@H](O)[C@@H]1NC(C)=O
// result 559 µM

// query Determine from records and report IC50 for CC(=O)N[C@@H]1[C@@H]([C@H](O)[C@H](O)CNC(=O)C(C)C)OC(C(=O)O)=C[C@H]1O
// result 680 µM

// query Determine from records and report IC50 for CC(=O)N[C@@H]1[C@@H]([C@H](O)[C@H](O)CNC(=O)c2ccccc2)OC(C(=O)O)=C[C@H]1O
// result > 1000 µM

// query Determine from records and report IC50 for CC(=O)N[C@@H]1[C@@H]([C@H](O)[C@H](O)CNC(=O)C(C)(C)C)OC(C(=O)O)=C[C@H]1O
// result 770 µM

// query Determine from records and report IC50 for CC(=O)N[C@@H]1[C@@H]([C@H](O)[C@H](O)CNC(=O)C2CC2)OC(C(=O)O)=C[C@H]1O
// result 16 µM

// query Determine from records and report IC50 for CC(=O)NC[C@@H](O)[C@@H](O)[C@H]1OC(C(=O)O)=C[C@@H](O)[C@@H]1NC(C)=O
// result 34 µM

// query Determine from records and report IC50 for CCC(C)C(=O)NC[C@@H](O)[C@@H](O)[C@@H]1OC(C(=O)O)=C[C@H](O)[C@H]1NC(C)=O (some centres unmarked)
// result > 1000 µM

// query Determine from records and report IC50 for CC(=O)N[C@@H]1[C@@H]([C@H](O)[C@H](O)CNC(=O)C2CCCC2)OC(C(=O)O)=C[C@H]1O
// result > 1000 µM

// query Determine from records and report IC50 for CCCCC(=O)NC[C@@H](O)[C@@H](O)[C@H]1OC(C(=O)O)=C[C@@H](O)[C@@H]1NC(C)=O
// result 159 µM

// query Determine from records and report IC50 for CCC(CC)C(=O)NC[C@@H](O)[C@@H](O)[C@@H]1OC(C(=O)O)=C[C@H](O)[C@H]1NC(C)=O
// result > 1000 µM
